- Test system: CYP3A4&5
- ASSAY_COMMENT: CYP inhibition in human liver microsomes, testosterone substrate
- Assay type: in vitro ADME
- RUN_CONDITIONS: probe testosterone, read-out: CYP3A4&5 testosterone Inh %
READOUT_KIND: inhibition at 10 µM (%)

A: Cc1nccn1Cc1ccc(-c2cc(CC(C)C)sc2S(=O)(=O)NC(=O)NCCO)c(F)c1
B: CC(C)Cc1cc(-c2ccc(Cn3ccnc3C(C)(C)C)c(F)c2)c(S(=O)(=O)NC(=O)NCCO)s1
Asked: Lab notebook, comparison: A versus B , higher inhibition at 10 µM goes to which? Kindly state the label of the option you pick.
Given back: A
(A: 18.9%, B: 4.5%)

A: Cc1nccn1Cc1ccc(-c2cc(CC(C)C)sc2S(=O)(=O)NC(=O)NCCO)cc1F
B: Cc1nccn1Cc1ccc(-c2cc(CC(C)C)sc2S(=O)(=O)NC(=O)NCCCO)cc1F
C: CCCCOC(=O)NS(=O)(=O)c1sc(CC(C)C)cc1-c1ccc(Cn2ccnc2)cc1
D: Cc1nccn1Cc1ccc(-c2cc(CC(C)C)sc2S(=O)(=O)NC(=O)NCC(C)(C)O)cc1F
Asked: List items by inhibition at 10 µM in falling order. Give the labels in the order specified.
Given back: C, D, B, A
(C: 94%, D: 29.7%, B: 18.4%, A: 12.4%)

P: CCc1nccn1Cc1ccc(-c2cc(CC(C)C)sc2S(=O)(=O)NC(=O)NCCO)cc1F
Q: CC(C)Cc1cc(-c2ccc(Cn3ccnc3C(C)(C)C)c(F)c2)c(S(=O)(=O)NC(=O)NCC(C)(C)O)s1
Asked: Rank P against Q by their inhibition at 10 µM values and give the higher one. To answer, give the label that identifies your chosen option.
Given back: P

====

- MEASURED_ON: human recombinant AT1 receptor (Homo sapiens, UniProt P30556)
- Construct: Eurofins protocol ITEM24
- Sequence (P30556 whole entry): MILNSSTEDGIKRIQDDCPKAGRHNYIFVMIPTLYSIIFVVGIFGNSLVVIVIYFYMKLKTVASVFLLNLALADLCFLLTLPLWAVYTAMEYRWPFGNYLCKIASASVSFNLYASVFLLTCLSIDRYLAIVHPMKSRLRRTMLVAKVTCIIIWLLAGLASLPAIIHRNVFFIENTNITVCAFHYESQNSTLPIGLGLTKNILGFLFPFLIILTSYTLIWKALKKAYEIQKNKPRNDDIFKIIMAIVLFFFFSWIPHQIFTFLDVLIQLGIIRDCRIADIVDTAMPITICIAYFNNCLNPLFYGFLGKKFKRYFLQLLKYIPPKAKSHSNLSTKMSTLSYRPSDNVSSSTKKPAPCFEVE
- ASSAY_COMMENT: Binding to AT1 receptor, radiometric scintillation assay (Eurofins ITEM24)
pIC50: −log10 of the molar value.
READOUT_KIND: pIC50

{"columns": ["SMILES_INPUT", "pIC50"],
 "data": [
  ["CC(C)Cc1cc(-c2ccc(Cn3ccnc3C(C)(C)C)c(F)c2)c(S(=O)(=O)NC(=O)NCC(C)(C)O)s1", 5.72],
  ["Cc1nccn1Cc1c(F)cc(-c2cc(CC(C)C)sc2S(=O)(=O)NC(=O)NCCO)cc1F", 4.31]
]}

A: CC(C)Cc1cc(-c2ccc(Cn3ccnc3C(C)(C)C)c(F)c2)c(S(=O)(=O)NC(=O)NCCO)s1
B: Cc1nccn1Cc1ccc(-c2cc(CC(C)C)sc2S(=O)(=O)NC(=O)NCC(C)(C)O)cc1F
Asked: Consider A and B . Which of these has its pIC50 at a higher number? Refer to your chosen item by its label in the answer.
Given back: A

====

- MEASURED_ON: CYP2C9 (Homo sapiens, UniProt P11712)
- Construct: using isoform-specific substrates incubated with human liver microsomes; tissue Eurofins protocol ITEMG232; host or cells: human liver microsomes
- Sequence (P11712 whole entry, canonical isoform): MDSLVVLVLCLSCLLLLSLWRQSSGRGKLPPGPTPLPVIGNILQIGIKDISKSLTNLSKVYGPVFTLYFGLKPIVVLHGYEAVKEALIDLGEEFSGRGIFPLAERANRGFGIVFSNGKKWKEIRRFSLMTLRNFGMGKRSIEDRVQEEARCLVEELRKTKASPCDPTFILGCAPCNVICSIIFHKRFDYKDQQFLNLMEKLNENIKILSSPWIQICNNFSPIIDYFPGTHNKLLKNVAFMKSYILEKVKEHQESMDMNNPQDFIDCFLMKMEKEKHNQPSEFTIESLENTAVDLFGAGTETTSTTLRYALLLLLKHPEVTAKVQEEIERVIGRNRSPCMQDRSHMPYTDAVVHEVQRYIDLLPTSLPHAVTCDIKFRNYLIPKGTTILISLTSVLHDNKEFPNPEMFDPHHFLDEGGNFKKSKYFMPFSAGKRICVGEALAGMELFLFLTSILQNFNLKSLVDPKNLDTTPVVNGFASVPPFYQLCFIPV
- ASSAY_COMMENT: CYP inhibition in human liver microsomes, diclofenac substrate
- Assay type: in vitro ADME
- RUN_CONDITIONS: probe diclofenac, read-out: CYP2C9 Inh %
READOUT_KIND: inhibition at 10 µM (%)

{"columns": ["COMPOUND", "MEAS_VALUE"],
 "data": [
  ["CCc1nccn1Cc1ccc(-c2cc(CC(C)C)sc2S(=O)(=O)NC(=O)NCCO)cc1F [Example 8]", 26.8]
]}

1: Cc1nccn1Cc1ccc(-c2cc(CC(C)C)sc2S(=O)(=O)NC(=O)NCC(C)(C)O)cc1F [Example 3]
2: Cc1nccn1Cc1ccc(-c2cc(CC(C)C)sc2S(=O)(=O)NC(=O)NCCO)cc1F [Example 1]
Asked: Hey, between 1 and 2 which has a smaller measured inhibition at 10 µM? Mark your answer with the label of the selected entry.
Given back: 2

Values from patent US20240174657A1
